- system_tested: human TLR-7 (Homo sapiens, UniProt Q9NYK1)
- Sequence (Q9NYK1 27-1049): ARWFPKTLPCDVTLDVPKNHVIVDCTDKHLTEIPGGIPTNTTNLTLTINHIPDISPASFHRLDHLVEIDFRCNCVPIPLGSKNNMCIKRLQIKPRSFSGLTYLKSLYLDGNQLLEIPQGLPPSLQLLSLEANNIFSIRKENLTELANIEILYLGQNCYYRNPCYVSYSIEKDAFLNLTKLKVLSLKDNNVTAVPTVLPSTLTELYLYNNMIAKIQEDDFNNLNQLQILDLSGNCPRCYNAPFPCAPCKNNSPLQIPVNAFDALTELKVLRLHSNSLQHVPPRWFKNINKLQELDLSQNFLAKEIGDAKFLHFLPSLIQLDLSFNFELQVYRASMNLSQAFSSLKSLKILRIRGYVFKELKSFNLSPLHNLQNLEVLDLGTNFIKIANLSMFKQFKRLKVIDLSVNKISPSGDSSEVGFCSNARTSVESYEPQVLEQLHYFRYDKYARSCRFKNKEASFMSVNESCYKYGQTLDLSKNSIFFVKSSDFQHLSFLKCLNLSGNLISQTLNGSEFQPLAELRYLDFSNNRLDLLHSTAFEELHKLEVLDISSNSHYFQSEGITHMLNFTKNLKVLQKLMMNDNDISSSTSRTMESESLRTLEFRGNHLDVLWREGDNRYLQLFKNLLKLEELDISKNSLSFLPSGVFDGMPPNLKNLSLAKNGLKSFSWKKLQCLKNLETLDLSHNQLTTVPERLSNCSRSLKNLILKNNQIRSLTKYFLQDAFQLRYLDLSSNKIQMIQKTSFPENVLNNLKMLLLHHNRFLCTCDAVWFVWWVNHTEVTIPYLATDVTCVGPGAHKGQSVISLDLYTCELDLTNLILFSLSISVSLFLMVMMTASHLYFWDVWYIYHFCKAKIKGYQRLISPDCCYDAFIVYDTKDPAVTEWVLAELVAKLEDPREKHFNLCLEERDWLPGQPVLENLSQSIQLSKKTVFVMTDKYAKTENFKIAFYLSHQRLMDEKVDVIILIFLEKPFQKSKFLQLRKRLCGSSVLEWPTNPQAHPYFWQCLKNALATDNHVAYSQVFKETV
- assay_remarks: TLR7/8-NF-κB Reporter Assay (HEK SEAP Reporter Assay), HEK-TLR-7 cells
- condition: HEK cells stably transfected with human TLR-7 and NF-κB-responsive SEAP gene, 24 h
The entries below are paired with their reported EC50.
value_type: EC50 (µM)

{"columns": ["compound", "system_tested", "number"],
 "data": [
  ["CCCCc1nc2c(N)nc3cc(C(=O)OC)ccc3c2n1CCCC(=O)OC [Compound 568]", "human TLR-7 (Homo sapiens, UniProt Q9NYK1)", 4.5],
  ["CCCCc1nc2c(N)nc3cc(C(=O)OC)ccc3c2n1CCCNS(=O)(=O)c1ccccc1 [Compound 544]", "human TLR-7 (Homo sapiens, UniProt Q9NYK1)", 0.42],
  ["CCCCc1nc2c(N)nc3cc(C(=O)OC)ccc3c2n1Cc1ccc(C(=O)O)cc1 [Compound 556]", "human TLR-7 (Homo sapiens, UniProt Q9NYK1)", 189]
]}
